# System: Setaria faberi (SETFA)
# ASSAY_METHOD_TEXT: Pre-emergence herbicidal activity, Setaria faberi
# Format: in vivo
# Parameters: key: 5=total damage to plant; 0=no damage to plant
# CONDITION_DESCRIPTION: 1000 g/ha, evaluated after 13 days, Test 1b
This section presents compounds with their documented SETFA damage score (0-5) values.
PROPERTY_LABEL: SETFA damage score (0-5)

[
  {
    "COMPOUND": "CCN(C(=O)OC(C)(C)C)c1ccc(-c2cncc(F)c2)nc1C(F)(F)F [Compound B14]",
    "MEASURED_TARGET": "Setaria faberi (SETFA)",
    "OBS_VALUE": 0
  },
  {
    "COMPOUND": "CC(C)(C)OC(=O)Nc1ccc(-c2cncnc2)nc1Cl [Compound B27]",
    "MEASURED_TARGET": "Setaria faberi (SETFA)",
    "OBS_VALUE": 4
  },
  {
    "COMPOUND": "CC(C)(C)OC(=O)Nc1ccc(-c2cncc(F)c2)nc1C(F)(F)F [Compound B30]",
    "MEASURED_TARGET": "Setaria faberi (SETFA)",
    "OBS_VALUE": 4
  },
  {
    "COMPOUND": "Cc1nc(-c2cccnc2)ccc1NC(=O)OC(C)(C)C [Compound B25]",
    "MEASURED_TARGET": "Setaria faberi (SETFA)",
    "OBS_VALUE": 5
  },
  {
    "COMPOUND": "COc1cncc(-c2ccc(N(C)C(=O)OC(C)(C)C)c(C(F)(F)F)n2)c1 [Compound B21]",
    "MEASURED_TARGET": "Setaria faberi (SETFA)",
    "OBS_VALUE": 1
  },
  {
    "COMPOUND": "Cc1nc(-c2cncc(C(F)(F)F)c2)ccc1NC(=O)OC(C)(C)C [Compound B24]",
    "MEASURED_TARGET": "Setaria faberi (SETFA)",
    "OBS_VALUE": 1
  },
  {
    "COMPOUND": "COc1cncc(-c2ccc(NC(=O)OC(C)(C)C)c(C)n2)c1 [Compound B23]",
    "MEASURED_TARGET": "Setaria faberi (SETFA)",
    "OBS_VALUE": 4
  },
  {
    "COMPOUND": "CCOC(=O)Nc1ccc(-c2cncc(F)c2)nc1C(F)(F)F [Compound B15]",
    "MEASURED_TARGET": "Setaria faberi (SETFA)",
    "OBS_VALUE": 4
  },
  {
    "COMPOUND": "Cc1cncc(-c2ccc(N(C)C(=O)OC(C)(C)C)c(C(F)(F)F)n2)c1 [Compound B18]",
    "MEASURED_TARGET": "Setaria faberi (SETFA)",
    "OBS_VALUE": 1
  },
  {
    "COMPOUND": "CC(C)OC(=O)Nc1ccc(-c2cncc(F)c2)nc1C(F)(F)F [Compound B16]",
    "MEASURED_TARGET": "Setaria faberi (SETFA)",
    "OBS_VALUE": 4
  }
]

###

# Test system: Echinochloa crus-galli (ECHCG)
# ASSAY_METHOD_TEXT: Post-emergence herbicidal activity, Echinochloa crus-galli
# Type: in vivo
# CONDITION_DESCRIPTION: 1000 g/ha, evaluated after 13 days
PROPERTY_LABEL: Control of ECHCG after post-emergence application (score 0-5)

[
  {
    "MOLECULE": "O=C1OCCN1c1ccc(-c2cncc(F)c2)nc1C(F)(F)F [Compound B45]",
    "MEASURED_TARGET": "Echinochloa crus-galli (ECHCG)",
    "OBS_VALUE": 4
  },
  {
    "MOLECULE": "CC(C)(C)OC(=O)Nc1ccc(-c2cncc(Cl)c2)nc1C(F)(F)F [Compound B6]",
    "MEASURED_TARGET": "Echinochloa crus-galli (ECHCG)",
    "OBS_VALUE": 4
  },
  {
    "MOLECULE": "CNC(=O)N(C)c1ccc(-c2cncc(F)c2)nc1C(F)(F)F [Compound B73]",
    "MEASURED_TARGET": "Echinochloa crus-galli (ECHCG)",
    "OBS_VALUE": 4
  },
  {
    "MOLECULE": "CCC(C)OC(=O)Nc1ccc(-c2cncc(F)c2)nc1C(F)(F)F (stereo not shown) [Compound B56]",
    "MEASURED_TARGET": "Echinochloa crus-galli (ECHCG)",
    "OBS_VALUE": 4
  },
  {
    "MOLECULE": "O=C(Nc1ccc(-c2cncnc2)nc1C(F)(F)F)N1CCOCC1 [Compound B55]",
    "MEASURED_TARGET": "Echinochloa crus-galli (ECHCG)",
    "OBS_VALUE": 3
  },
  {
    "MOLECULE": "O=C(Nc1ccc(-c2cncc(F)c2)nc1C(F)(F)F)N1CCSC1 [Compound B68]",
    "MEASURED_TARGET": "Echinochloa crus-galli (ECHCG)",
    "OBS_VALUE": 5
  },
  {
    "MOLECULE": "CC(C)COC(=O)Nc1ccc(-c2cncc(F)c2)nc1C(F)(F)F [Compound B43]",
    "MEASURED_TARGET": "Echinochloa crus-galli (ECHCG)",
    "OBS_VALUE": 4
  },
  {
    "MOLECULE": "O=C(Nc1ccc(-c2cncc(F)c2)nc1C(F)(F)F)NC1CC1 [Compound B89]",
    "MEASURED_TARGET": "Echinochloa crus-galli (ECHCG)",
    "OBS_VALUE": 5
  },
  {
    "MOLECULE": "C=CCN(C(=O)OC(C)(C)C)c1ccc(-c2cncc(F)c2)nc1C(F)(F)F [Compound B9]",
    "MEASURED_TARGET": "Echinochloa crus-galli (ECHCG)",
    "OBS_VALUE": 5
  },
  {
    "MOLECULE": "CN(C(=O)OC(C)(C)C)c1ccc(-c2cncc(C#N)c2)nc1C(F)(F)F [Compound B4]",
    "MEASURED_TARGET": "Echinochloa crus-galli (ECHCG)",
    "OBS_VALUE": 4
  }
]

###

# Test system: Avena fatua (AVEFA)
# ASSAY_METHOD_TEXT: Post-emergence herbicidal activity, Avena fatua
# Format: in vivo
# CONDITION_DESCRIPTION: 1000 g/ha, evaluated after 13 days
This section presents compounds with their documented Control of AVEFA after post-emergence application (score 0-5) values.
PROPERTY_LABEL: Control of AVEFA after post-emergence application (score 0-5)

[
  {
    "SMILES_CODE": "COC(=O)CN(C(=O)OC(C)(C)C)c1ccc(-c2cncc(F)c2)nc1C(F)(F)F",
    "MEASURED_TARGET": "Avena fatua (AVEFA)",
    "OBS_VALUE": 1
  },
  {
    "SMILES_CODE": "CC(C)(C)OC(=O)Nc1ccc(-c2cncc(Cl)c2)nc1C(F)(F)F",
    "MEASURED_TARGET": "Avena fatua (AVEFA)",
    "OBS_VALUE": 3
  },
  {
    "SMILES_CODE": "C#CCOC(=O)Nc1ccc(-c2cncc(F)c2)nc1C(F)(F)F",
    "MEASURED_TARGET": "Avena fatua (AVEFA)",
    "OBS_VALUE": 2
  },
  {
    "SMILES_CODE": "O=C(Nc1ccc(-c2cncc(F)c2)nc1C(F)(F)F)NN1CCOCC1",
    "MEASURED_TARGET": "Avena fatua (AVEFA)",
    "OBS_VALUE": 3
  },
  {
    "SMILES_CODE": "O=C1OCCN1c1ccc(-c2cncc(F)c2)nc1C(F)(F)F",
    "MEASURED_TARGET": "Avena fatua (AVEFA)",
    "OBS_VALUE": 3
  },
  {
    "SMILES_CODE": "O=C(Nc1ccc(-c2cncc(F)c2)nc1C(F)(F)F)OCC1CC1",
    "MEASURED_TARGET": "Avena fatua (AVEFA)",
    "OBS_VALUE": 3
  },
  {
    "SMILES_CODE": "COc1nc(-c2cncc(F)c2)ccc1NC(=O)OC(C)(C)C",
    "MEASURED_TARGET": "Avena fatua (AVEFA)",
    "OBS_VALUE": 2
  },
  {
    "SMILES_CODE": "NC(=O)Nc1ccc(-c2cncc(F)c2)nc1C(F)(F)F",
    "MEASURED_TARGET": "Avena fatua (AVEFA)",
    "OBS_VALUE": 3
  },
  {
    "SMILES_CODE": "CC(C)OC(=O)Nc1ccc(-c2cncc(F)c2)nc1C#N",
    "MEASURED_TARGET": "Avena fatua (AVEFA)",
    "OBS_VALUE": 4
  }
]
